Tested on: MOLP-8 human multiple myeloma cell line
Test description: MOLP8 Caspase-Glo 3/7 apoptosis induction assay
Format: cell-based
Measurement context: MOLP-8 cells, 2 hours at 37° C.; 30 μM highest conc.; averaged over all runs on all batches
Recorded metric: AC50 (nM)
Use nM as the unit, but write only the number.

# annotated cases, reported AC50 shown
| Compound | AC50, nM |
| --- | --- |
| Cc1nn(C)c2c1CSCc1cc(n(C)n1)CCc1cc(c3ccc(F)cc3c1)OCCCc1c(C(=O)O)n(C)c3c-2c(Cl)ccc13 (single isomer, unassigned) [Compound 10] | 10 |
| COCCn1c(C(=O)O)c2c3ccc(Cl)c(c31)-c1c(cnn1C)CSCc1cc(n(C)n1)CCc1cc(c3ccc(F)cc3c1)OCCC2 (single isomer, unassigned) [Compound 23] | 27 |

Prompt line: Please indicate AC50 recorded for Cc1nn(C)c2c1CSCc1cc(n(C)n1)CSc1cc(c3ccccc3c1)OCCCc1c(C(=O)O)n(C)c3c-2c(Cl)ccc13 (single isomer, unassigned) [Compound 1]
Response line: 1220

Prompt line: Please indicate AC50 recorded for Cc1nn(C)c2c1CSCc1cc(n(C)n1)CCc1cc(c3ccccc3c1)OCCCc1c(C(=O)O)n(C)c3c-2c(Cl)ccc13 (single isomer, unassigned) [Compound 11]
Response line: 1620

Prompt line: Please indicate AC50 recorded for CCn1c(C(=O)O)c2c3ccc(Cl)c(c31)-c1c(cnn1C)CCCc1cc(n(C)n1)CCc1cc(c3ccc(F)cc3c1)OCCC2 (single isomer, unassigned) [Compound 13]
Response line: 22

Prompt line: Please indicate AC50 recorded for Cc1nn(C)c2c1CSCc1cc(n(C)n1)CSc1cc(c3ccccc3c1)OCCCc1c(C(=O)O)n(C)c3c-2c(Cl)ccc13 (single isomer, unassigned) [Compound 2]
Response line: 54

Prompt line: Please indicate AC50 recorded for COCCOCCn1c(C(=O)O)c2c3ccc(Cl)c(c31)-c1c(cnn1C)CSCc1cc(n(C)n1)CCc1cc(c3ccc(F)cc3c1)OCCC2 (single isomer, unassigned) [Compound 20]
Response line: 30000

Prompt line: Please indicate AC50 recorded for Cc1nn(C)c2c1CSCc1cc(n(C)n1)CCc1cc(c3ccc(F)cc3c1)OCCCc1c(C(=O)O)n(C)c3c-2c(Cl)ccc13 (single isomer, unassigned) [Compound 10a]
Response line: 68

Prompt line: Please indicate AC50 recorded for COCCOCCn1c(C(=O)O)c2c3ccc(Cl)c(c31)-c1c(cnn1C)CSCc1cc(n(C)n1)CCc1cc(c3ccc(F)cc3c1)OCCC2 (single isomer, unassigned) [Compound 22]
Response line: 22

Prompt line: Please indicate AC50 recorded for COCCOCCc1nn(C)c2c1CSCc1cc(n(C)n1)CCc1cc(c3ccc(F)cc3c1)OCCCc1c(C(=O)O)n(C)c3c-2c(Cl)ccc13 (single isomer, unassigned) [Compound 18]
Response line: 2430

Prompt line: Please indicate AC50 recorded for COCCOCCc1nn(C)c2c1CSCc1cc(n(C)n1)CCc1cc(c3ccc(F)cc3c1)OCCCc1c(C(=O)O)n(C)c3c-2c(Cl)ccc13 (single isomer, unassigned) [Compound 17]
Response line: 15

Each recorded value in this set is attributed to patent US20230265105A1.
